Reported IC50 against IRAK4 (Homo sapiens (Human), UniProt Q9NWZ3), gathered from multiple publications, appears below.

Answered examples (5):
Molecule	System Tested	Meas Value
CC(C)Nc1cc(-n2ncc3cc(C#N)cnc32)ncc1-c1cnn(CC(F)(F)F)c1	IRAK4 (Homo sapiens (Human), UniProt Q9NWZ3)	39 nM
CC(C)Nc1cc(-n2ncc3cc(C#N)c(N)nc32)ncc1-n1cc(CCC(C)(C)O)nn1	IRAK4 (Homo sapiens (Human), UniProt Q9NWZ3)	1 nM
NCCc1ccc2c(c1)nc1n2Cc2cccc(c2)-c2ccc(=O)n(n2)Cc2cccc(c2)C(=O)N1	IRAK4 (Homo sapiens (Human), UniProt Q9NWZ3)	< 100 nM
CC(C)(O)[C@H](F)CNC(=O)c1cnc(-c2cnn3cc(C#N)cnc23)cc1Nc1cnn(CC2CC2)c1	IRAK4 (Homo sapiens (Human), UniProt Q9NWZ3)	2 nM
CC(C)Nc1cc(-n2ncc3cc(C#N)cnc32)ncc1-n1cc(CCCCO)nn1	IRAK4 (Homo sapiens (Human), UniProt Q9NWZ3)	6 nM

INPUT: What value of measured IC50 is listed for `CC(C)Nc1cc(-c2ccc3cc(C#N)cnn23)ncc1-c1cn(CC(C)(C)O)nn1` ?
OUTPUT: 4 nM

INPUT: What value of measured IC50 is listed for `CNCc1cccc(-c2ccc3cnn(-c4cccc(C)n4)c3c2)c1` ?
OUTPUT: < 100 nM

INPUT: What value of measured IC50 is listed for `COc1cc(-n2ccc3nc(Nc4cc(C)ns4)nc(OC4CCOCC4)c32)ccn1` ?
OUTPUT: 100 to 1000 nM

INPUT: What value of measured IC50 is listed for Cc1cccc(-n2ncc3ccc(-c4cccc(C(N)CC(F)(F)F)n4)cc32)n1 (stereo not shown) ?
OUTPUT: 100 to 1000 nM

INPUT: What value of measured IC50 is listed for `C/C(=N/O)c1cccc(-c2cc(Cl)c3cnn(-c4cccc(C)n4)c3c2)n1` ?
OUTPUT: 1000 to 10000 nM

INPUT: What value of measured IC50 is listed for `CN1CCN(c2cccc(Nc3ncc(-c4nc5ccccc5s4)c(N[C@@H]4C[C@H](CO)[C@@H](O)[C@H]4O)n3)c2)CC1` ?
OUTPUT: 2.6 nM

====

pIC50: −log10 of the molar value.
Reported pIC50 against UniProtKB Q9NWZ3, gathered from multiple publications, appears below.
Short version: pIC50 at least 8 is class 1, less is class 0.

The following molecules have reported results that may help.
Molecule	Label Class
CC(C)Nc1cc(-n2ncc3cc(C#N)cnc32)ncc1-c1cn([C@@H]2CCN(S(C)(=O)=O)C[C@H]2OS(C)(=O)=O)nn1 (single isomer, unassigned)	class 1
O=C1CC[C@@H](COc2nccc3cc4c(=O)[nH]cc(CC(F)F)c4cc23)N1	class 0
CC(F)(F)Cn1cc(Nc2cc(-c3cnn4cc(Cl)cnc34)ncc2C(=O)NC[C@@H](F)C(C)(C)O)cn1	class 1
CC(C)(O)C1CC(Nc2cc(Nc3ccc4ncsc4c3)ncc2C(=O)NC[C@@H](F)C(C)(C)O)C1 (stereo partly shown)	class 1
C[C@@H]1CN([C@H]2CC[C@H](Nc3ncnc4ccc(-c5cncc(O)c5)cc34)CC2)C[C@H](C)O1	class 1

INPUT: Dear colleague, could you confirm whether `CC(C)CCNC(=O)c1cnc2sc(-c3ccnnc3)cc2c1NC(C)C` has pIC50 at or above 8?
OUTPUT: class 0

INPUT: Dear colleague, could you confirm whether `C[C@@H](CF)Nc1cc(-c2cnn3cc(Cl)cnc23)ncc1C(=O)NC[C@@H](F)C(C)(C)O` has pIC50 at or above 8?
OUTPUT: class 1

INPUT: Dear colleague, could you confirm whether CC(C)Nc1c(C(=O)NCC2CCS(=O)(=O)C2)cnc2sc(-c3cncs3)cc12 (stereo not shown) has pIC50 at or above 8?
OUTPUT: class 0

====

Reported IC50 against IRAK4 (Homo sapiens (Human)), gathered from multiple publications, appears below.
Report only the number, with the unit nM understood.

Answered examples (3):
Molecule	Metric Name	Meas Value
CC(C)Nc1cc(-c2cnn3cc(Cl)cnc23)ncc1-n1cc(CCC(C)(C)O)nn1	IC50	3
CC(C)(O)[C@H](F)CNC(=O)c1cnc(Nc2ccc3ncsc3c2)cc1N[C@H]1CCCC(O)C1 (stereo partly shown)	IC50	4.8
CC(C)Nc1cc(-c2ccc3cc(C#N)cnn23)ncc1-c1cn(C)nn1	IC50	2

INPUT: Notebook: pull reported IC50 for IRAK4 (Homo sapiens (Human)), entry `CNC(=O)[C@H]1CC[C@H](NC(=O)c2cnn3cc(-c4ccc(C#N)nc4)cc3c2NC(C)C)CC1`
OUTPUT: 14

INPUT: Notebook: pull reported IC50 for IRAK4 (Homo sapiens (Human)), entry CC(C)Nc1cc(-n2ncc3cc(C#N)cnc32)ncc1-c1cn([C@@H]2CCN(S(C)(=O)=O)C[C@H]2O)nn1 (single isomer, unassigned)
OUTPUT: 6

INPUT: Notebook: pull reported IC50 for IRAK4 (Homo sapiens (Human)), entry `COc1cc2nn(C3CCN(CCC4CCC5(CC4)CCN(C(=O)c4ccc(Cl)c(N6CCC(=O)NC6=O)c4)CC5)CC3)cc2cc1NC(=O)c1cccc(C(F)(F)F)n1`
OUTPUT: 61.8

====

pIC50: −log10 of the molar value.
Reported pIC50 against IRAK4 (Homo sapiens (Human), UniProt Q9NWZ3), gathered from multiple publications, appears below.

Answered examples (3):
Compound	System Tested	Meas Value
O=C1Nc2nc3ccccc3n2CCc2cccc(c2)-c2ccc(=O)n(n2)Cc2cccc1c2	IRAK4 (Homo sapiens (Human), UniProt Q9NWZ3)	> 7.00
CC[C@@H]1[C@H](F)C(=O)N[C@@H]1COc1nccc2cc3c(=O)[nH]ccc3cc12	IRAK4 (Homo sapiens (Human), UniProt Q9NWZ3)	8.19
Cc1cccc(-n2ncc3ccc(-c4cn(C)c(CO)n4)cc32)n1	IRAK4 (Homo sapiens (Human), UniProt Q9NWZ3)	> 7.00

INPUT: Notebook: pull reported pIC50 for IRAK4 (Homo sapiens (Human), UniProt Q9NWZ3), entry `Cc1cc(Nc2nc(OC3CCOCC3)c3c(ccn3-c3cccc4c3OCCO4)n2)sn1`
OUTPUT: 6.00 to 7.00

====

Reported IC50 against IRAK4 (Homo sapiens (Human), UniProt Q9NWZ3), gathered from multiple publications, appears below.

Answered examples (3):
Compound	System Tested	IC50
Cc1nsc2nc(Nc3cnn(C4CCOCC4)c3)nc(N[C@H]3CC[C@H](N4CCNCC4)CC3)c12	IRAK4 (Homo sapiens (Human), UniProt Q9NWZ3)	23.6 nM
CCC[C@H](N)c1cccc(-c2cc(C3=CCOCC3)c3cnn(-c4cccc(CO)n4)c3c2)n1	IRAK4 (Homo sapiens (Human), UniProt Q9NWZ3)	< 100 nM
O=C(NCCC1CC1)c1cnc2ccc(-c3cn[nH]c3)cc2c1NC1CC(F)(F)C1	IRAK4 (Homo sapiens (Human), UniProt Q9NWZ3)	19.7 nM

INPUT: Notebook: pull reported IC50 for IRAK4 (Homo sapiens (Human), UniProt Q9NWZ3), entry `Cn1cc(-c2cccc(-c3ncc(-c4nnc(C(=O)N5CC[C@@H](O)C5)s4)c(NCC4CNC4)n3)c2)cn1`
OUTPUT: < 100 nM

INPUT: Notebook: pull reported IC50 for IRAK4 (Homo sapiens (Human), UniProt Q9NWZ3), entry Cc1nsc2nc(Nc3cnn(C4CCOCC4)c3)nc(N[C@H]3CC[C@H](N4CCNC(C)C4)CC3)c12 (stereo partly shown)
OUTPUT: 11.2 nM

INPUT: Notebook: pull reported IC50 for IRAK4 (Homo sapiens (Human), UniProt Q9NWZ3), entry `Cc1nc(Nc2ccc(Cl)cc2)nc(N[C@@H]2C[C@H](CO)[C@@H](O)[C@H]2O)c1-c1nc2ccccc2s1`
OUTPUT: 6370 nM

INPUT: Notebook: pull reported IC50 for IRAK4 (Homo sapiens (Human), UniProt Q9NWZ3), entry `O=C(CCCCCc1cn(-c2ccccc2)c(NC(=O)c2cccc(-c3ccc4scnc4c3)c2)n1)NC1CC1`
OUTPUT: > 100 nM

====

Reported IC50 against IRAK4 (Homo sapiens (Human), UniProt Q9NWZ3), gathered from multiple publications, appears below.

Answered examples (3):
Compound	Meas Value
CC(C)C(=O)N1CCC(N2CC(n3cc(NC(=O)c4cccc(-c5cc[nH]n5)n4)c(C(F)F)n3)C2)CC1	0.81 nM
CCCC(N)c1cccc(-c2ccc3cnn(-c4cccc(C(N)=O)n4)c3c2)n1 (stereo not shown)	< 100 nM
Cc1cccc(-n2ncc3ccc(-c4cccc(C(N)CO)n4)cc32)n1 (stereo not shown)	< 100 nM

Now consider the entry below.
INPUT: What value of measured IC50 is listed for `Cn1cc(Nc2nc(N[C@H]3CC[C@H](N(C)C)CC3)c3c4c(sc3n2)CCC4)cn1` ?
OUTPUT: ≤ 5000 nM

====

Reported pIC50 against UniProt Q9NWZ3, gathered from multiple publications, appears below.
The read-out pIC50 is expressed as -log10 of concentration in moles per litre.

Mol Smiles	Metric Name	Meas Value
O=C(NCCCc1ccncc1)c1cnc2ccc(-c3cn[nH]c3)cc2c1NC1CC1	pIC50	7.97
CC(C)Nc1c(C(N)=O)cnc2ccc(-c3cn[nH]c3)cc12	pIC50	7.66
COCCn1cc(-c2cnc(-c3ccc4cc(C#N)cnn34)cc2NC(C)C)nn1	pIC50	8.70

Now consider the entry below.
INPUT: Notebook: pull reported pIC50 for UniProt Q9NWZ3, entry `CC(C)Nc1c(C(=O)NC[C@@H](F)C(C)(C)O)cnc2sc(Nc3cccnc3)nc12`
OUTPUT: 6.91
